test system: U87MG cells; experiment: 2D cytotoxicity assay, 24 h DLI & no wash, SRB endpoint; format: cell-based, human; conditions: U87MG 2D monolayer, 1% O2; 520 nm, 7.22 mW/cm^2, 13.1 J/cm^2, 30 min; not washed; SRB at 96 h; n = 3; read-out: EC50,light
outcome.measure: EC50 (µM)

• N.N.[Cl][Pt][Cl] [cisplatin, reference compound] = 12.5

----------
Tested on: A549 cells
Assay: 2D cytotoxicity assay, 24 h DLI & no wash, SRB endpoint
Type: cell-based, human
Settings: A549 2D monolayer, 21% O2, dark; 24 h treatment, not washed; SRB at t = 96 h; n = 3; read-out: EC50,dark
Experimental: For each complex, two identical plates were prepared, one of which was irradiated with light, while the other was used as a dark control. […] Finally, at t = 96 h, 100 μL of cold trichloroacetic acid (10% w/v) was added to each well to fix the cells, and all plates were then transferred to a 4 °C refrigerator for 48 h before performing an SRB cell quantification endpoint assay.[72] […] After mixing, the absorbance of each well was determined by an M1000 Tecan Reader, reading at 510 nm. […]
outcome.measure: EC50

• N.N.[Cl][Pt][Cl] [cisplatin, reference compound] = 2.3 µM

----------
tested on: PC-3 cells; assay: 2D cytotoxicity assay, 24 h DLI & no wash, SRB endpoint; format: cell-based, human; settings: PC-3 2D monolayer, 1% O2; 520 nm, 7.22 mW/cm^2, 13.1 J/cm^2, 30 min; not washed; SRB at 96 h; n = 3; read-out: EC50,light
outcome.measure: EC50 (µM)

* N.N.[Cl][Pt][Cl] [cisplatin, reference compound] | 25.8

These measurements were taken from paper PMC10347550.
